Test method notes: Developed color of polymer plate under xenon light (color density, maximum absorption wavelength)
Type: physicochemical
Measurement conditions: 0.04 parts in polymer plate
Assay readout: Color density

COc1ccc(-c2cc3c(s2)C2(C4CC5CC(C4)CC2C5)C2C(=O)N(CC#N)C(=O)C2=C3C)cc1 (stereo not drawn) [E, reference compound]; 0.90
CCC1=C2C(=O)N(C(=O)C(Cl)(Cl)Cl)C(=O)C2C2(c3sc4cc(OC)ccc4c31)C1CC3CC(Cl)(C1)CC2(Cl)C3 (stereo not drawn); 0.85
COc1ccc(C2=C3C(=O)N(C(=O)c4ccccc4)C(=O)C3C3(c4oc5ccccc5c42)C2CC4CC3CC(C)(C4)C2)cc1 (stereo not drawn); 0.98
CCOC12CCC(CC1)C21c2sc3ccccc3c2C(CC)=C2C(=O)N(S(=O)(=O)CC)C(=O)C21 (stereo not drawn); 0.95
O=C1C2=C(C3CC3)c3ccsc3C3(C4CC5CC(C4)CC3C5)C2C(=O)N1C(=O)c1ccccc1 (stereo not drawn); 0.90
CCN1C(=O)C2=C(C)c3cc(-c4ccc(OC)cc4)n(C)c3C3(C4CC5CC(C4)CC3C5)C2C1=O (stereo not drawn) [G, reference compound]; 0.88

----------
Test method notes: Developed color of polymer plate under xenon light (color density, maximum absorption wavelength)
Type: physicochemical
Measurement conditions: 0.04 parts in polymer plate
Assay readout: Color density

CCCCC12CCC(CC1)C21c2sc(C)c(CC)c2C(C2CC2)=C2C(=O)N(C(=O)c3cccc(C(F)(F)F)c3)C(=O)C21 (stereo not shown); 1.10
CSc1cc2c(n1C)C1(C3C(=O)N(C(F)(F)F)C(=O)C3=C2C(C)C)C2(C)CCC1(C)CC2 (stereo not shown); 0.81
CC(=O)N1C(=O)C2=C(C3CC3)c3c(sc4c3CCCC4)C3(C4CCC3CC4)C2C1=O (stereo not shown); 0.87
CC(=O)N1C(=O)C2=C(C)c3c4c(n(-c5ccccc5)c3C3(C5CCCC3CCC5)C2C1=O)CCCC4 (stereo not shown); 1.05
